Entries with their measured MMP assays efficacy (%) Rat Hepatocytes, system rat primary hepatocytes:
Quick reminder: number only, in %, skip the unit.

Example entries begin here.
{"columns": ["COMPOUND", "MMP assays efficacy (%) Rat Hepatocytes"],
 "data": [
  ["CC1(COc2ccc(CC3SC(=O)NC3=O)cc2)CCCCC1 (centres unmarked) [Ciglitizone]", -84],
  ["CCC(C)(C)c1cc(O)c(C(C)(C)CC)cc1O", -87],
  ["Oc1ccc(C2(c3ccc(O)cc3)CCCCC2)cc1 [Bisphenol Z]", -34]
]}

Data request, read-out MMP assays efficacy (%) Rat Hepatocytes, for CO[C@H]1/C=C/O[C@@]2(C)Oc3c(C)c(O)c4c(O)c(c(/C=N/N5CCN(C)CC5)c(O)c4c3C2=O)NC(=O)/C(C)=C\C=C\[C@H](C)[C@H](O)[C@@H](C)[C@@H](O)[C@@H](C)[C@H](OC(C)=O)[C@@H]1C [Rifampicin, reference compound] -68

// query MMP assays efficacy (%) Rat Hepatocytes value for entry Oc1cc(Cl)c(Cl)c(Cl)c1Cl [2,3,4,5-Tetrachlorophenol] -76

# MMP assays efficacy (%) Rat Hepatocytes lookup, item N#CC(c1ccc(Cl)cc1)c1c(Cl)cc(-n2ncc(=O)[nH]c2=O)cc1Cl (centres unmarked) [Diclazuril, reference compound] -114

Give its MMP assays efficacy (%) Rat Hepatocytes value. Item: CCCSP(=O)(OCC)Oc1ccc(Br)cc1Cl (centres unmarked) [Profenofos] -61

----------
Test system: isolated rat liver mitochondria
MEASUREMENT PROTOCOL: Oxygen consumption, Clark-type oxygen electrode
Assay type: biochemical
TEST SETTINGS: mitochondrial respiration in isolated rat liver mitochondria, Clark type oxygen electrode; over tested concentrations

{"columns": ["RECORD SMILES", "Potential Mechanism"],
 "data": [
  ["Cc1cc(Cc2cc(C)cc(C(C)(C)C)c2O)c(O)c(C(C)(C)C)c1", "Uncoupler"],
  ["CCc1cc(Cc2cc(CC)cc(C(C)(C)C)c2O)c(O)c(C(C)(C)C)c1", "Uncoupler"],
  ["O=C(O)c1cc(O)c2c(c1)C(=O)c1cccc(O)c1C2=O", "Uncoupler"]
]}

----------
Test system: isolated rat liver mitochondria
MEASUREMENT PROTOCOL: Oxygen consumption, Clark-type oxygen electrode
Format: biochemical
TEST SETTINGS: 100 µM; succinate-driven state 4 respiration; isolated rat liver mitochondria
Below, each of the compounds is paired with its reported II-sub, % of control (O2 consumption rate) value.

{"columns": ["COMPOUND", "RESULT"],
 "data": [
  ["CCN1C(=CC=Cc2ccc3ccccc3[n+]2CC)C=Cc2ccccc21.[Cl-] [Pinacyanol chloride]", "27 (8.5) % of control"],
  ["CCc1cc(Cc2cc(CC)cc(C(C)(C)C)c2O)c(O)c(C(C)(C)C)c1", "134 (19.8) % of control"],
  ["Cc1cc(Cc2cc(C)cc(C(C)(C)C)c2O)c(O)c(C(C)(C)C)c1", "184 (27.2) % of control"]
]}

Moving on to another compound below.
What value of measured II-sub, % of control (O2 consumption rate) is listed for Cc1cc(O)c2c(c1)C(=O)c1cc(O)cc(O)c1C2=O ? 67 (23.4) % of control

----------
System: rat primary hepatocytes
RECORDED METRIC: MMP assays efficacy (%) Rat Hepatocytes
Field: numeric (%). Do not append units.

Example cases with answers are listed next.
{"columns": ["MOLECULE", "TARGET OF ASSAY", "RECORDED METRIC", "MEASURED NUMBER"],
 "data": [
  ["O=c1oc2ccccc2c(O)c1C(CC(O)c1ccc(-c2ccc(Br)cc2)cc1)c1ccccc1 (stereo not drawn)", "rat primary hepatocytes", "MMP assays efficacy (%) Rat Hepatocytes", -79],
  ["CC(C)(c1ccccc1)c1ccc(O)c(C(C)(C)c2ccccc2)c1", "rat primary hepatocytes", "MMP assays efficacy (%) Rat Hepatocytes", -78],
  ["C[C@]12CC[C@@H]3c4ccc(O)cc4C[C@@H](CCCCCCCCC[S+]([O-])CCCC(F)(F)C(F)(F)F)[C@H]3[C@@H]1CC[C@@H]2O (stereo partly drawn)", "rat primary hepatocytes", "MMP assays efficacy (%) Rat Hepatocytes", -48],
  ["O=[N+]([O-])c1ccc(Oc2ccc(C(F)(F)F)cc2[N+](=O)[O-])cc1", "rat primary hepatocytes", "MMP assays efficacy (%) Rat Hepatocytes", -114],
  ["CN(C)c1ccc2nc3ccc(=[N+](C)C)cc-3sc2c1 [Methylene blue trihydrate]", "rat primary hepatocytes", "MMP assays efficacy (%) Rat Hepatocytes", -93]
]}

Any idea what MMP assays efficacy (%) Rat Hepatocytes came out for Nc1ccc(N)c2c1C(=O)c1ccccc1C2=O on rat primary hepatocytes? -93

# get_value(readout= MMP assays efficacy (%) Rat Hepatocytes, system= rat primary hepatocytes) for CO[C@H]1C[C@@H]2CC[C@@H](C)[C@@](O)(O2)C(=O)C(=O)N2CCCC[C@H]2C(=O)O[C@H]([C@H](C)C[C@@H]2CC[C@@H](OCCO)[C@H](OC)C2)CC(=O)[C@H](C)/C=C(\C)[C@@H](O)[C@@H](OC)C(=O)[C@H](C)C[C@H](C)/C=C/C=C/C=C/1C -38

# value lookup — system rat primary hepatocytes, readout MMP assays efficacy (%) Rat Hepatocytes, item Oc1cc(Cl)cc(Cl)c1Cl -77

Hello, I am looking for reported MMP assays efficacy (%) Rat Hepatocytes with rat primary hepatocytes for OC(c1ccc(Cl)cc1)(c1cncnc1)c1ccccc1Cl (stereo not drawn) . Could you help? -81

Under rat primary hepatocytes: MMP assays efficacy (%) Rat Hepatocytes value of CC(=Cc1ccccc1)[N+](=O)[O-] ? -107

Query for rat primary hepatocytes: what MMP assays efficacy (%) Rat Hepatocytes does the record show for Oc1c(Cl)c(Cl)c(Cl)c(Cl)c1Cl ? -119

----------
pEC50 listing for selected compounds.
System: p53 (p53-bla HCT-116 cells)
MEASUREMENT PROTOCOL: p53 β-lactamase reporter gene assay
Format: cell-based, human
TEST SETTINGS: Homo sapiens; 16 h incubation; mean±SD of three experiments
Field pEC50 (float): negative decimal logarithm of the concentration in molar.

{"columns": ["COMPOUND", "RECORDED METRIC", "MEASURED NUMBER"],
 "data": [
  ["O=C(Nc1ccc(Oc2ccc(Cl)cc2)c(Cl)c1)c1cc(I)cc(I)c1O [Rafoxanide, reference compound]", "pEC50", 5.04],
  ["Cc1cc(O)c2c(c1)C(=O)c1cc(O)cc(O)c1C2=O [Emodin]", "pEC50", 4.83],
  ["CCC(C)c1cc([N+](=O)[O-])cc([N+](=O)[O-])c1O (stereo not shown) [Dinoseb]", "pEC50", 5.58]
]}

Query (compound): O=C(Nc1ccc(Cl)cc1)Nc1ccc(Cl)c(Cl)c1 [Triclocarban] ; field requested: pEC50 5.27

----------
System: rat primary hepatocytes
MEASUREMENT PROTOCOL: MMP assay in rat primary hepatocytes
TEST SETTINGS: read-out: MMP assays IC50 (µM) Rat Hepatocytes
// returns N unless IC50 is strictly below 10 µM, in which case Y

{"columns": ["COMPOUND", "LABEL VALUE"],
 "data": [
  ["Nc1ccc(-c2ccc(N)c(N)c2)cc1N [3,3'-Diaminobenzidine]", "N"]
]}

Is the reported IC50 for CO/C=C(/C(=O)OC)c1ccccc1COc1cccc(C(F)(F)F)n1 [Picoxystrobin] strictly below 10 µM? N

Report whether reported IC50 is lower than 10 µM (strictly) for ClC1C(Cl)C(Cl)C(Cl)C(Cl)C1Cl (stereo not drawn) [alpha-1,2,3,4,5,6-Hexachlorocyclohexane] N

Is 10 µM strictly greater than the compound's reported IC50? compound: CCC(=C(CC)c1ccc(O)cc1)c1ccc(O)cc1 [(Z,E)-Diethylstilbestrol] N

Please let me know if Nc1nc(N)c(N)c(N)n1.O=S(=O)(O)O [tetra-Aminopyrimidine sulfate] shows IC50 below 10 µM. N

Quick check: IC50 of O=[N+]([O-])c1ccc(F)c([N+](=O)[O-])c1 [1-Fluoro-2,4-dinitrobenzene] under 10 µM? Y

A record lists CN(C)c1ccc(C(=C2C=CC(=[N+](C)C)C=C2)c2ccccc2)cc1.CN(C)c1ccc(C(=C2C=CC(=[N+](C)C)C=C2)c2ccccc2)cc1.O=C(O)C(=O)O.O=C([O-])C(=O)O.O=C([O-])C(=O)O [Malachite green oxalate] . Is its IC50 below 10 µM? Y

----------
Test system: isolated rat liver mitochondria
MEASUREMENT PROTOCOL: Oxygen consumption, Clark-type oxygen electrode
Format: biochemical
TEST SETTINGS: 4 µM; succinate-driven state 4 respiration; isolated rat liver mitochondria
The reader will find reported II-sub, % of control (O2 consumption rate) values listed item by item below.

See these solved cases before continuing.
{"columns": ["COMPOUND", "RESULT"],
 "data": [
  ["Cc1cc(O)c2c(c1)C(=O)c1cc(O)cc(O)c1C2=O", "144 (26.8) % of control"],
  ["CCN1C(=CC=Cc2ccc3ccccc3[n+]2CC)C=Cc2ccccc21.[Cl-] [Pinacyanol chloride]", "79 (16.2) % of control"],
  ["O=C(O)c1cccnc1Nc1cccc(C(F)(F)F)c1 [Niflumic acid, reference compound]", "221 (36.2) % of control"]
]}

Now for the compound whose II-sub, % of control (O2 consumption rate) we want.
Record request: II-sub, % of control (O2 consumption rate) value, item O=C(O)c1cc(O)c2c(c1)C(=O)c1cccc(O)c1C2=O 103 (25.4) % of control
